Biological target: human CB1 receptors (Homo sapiens)
Sequence (P21554 whole entry): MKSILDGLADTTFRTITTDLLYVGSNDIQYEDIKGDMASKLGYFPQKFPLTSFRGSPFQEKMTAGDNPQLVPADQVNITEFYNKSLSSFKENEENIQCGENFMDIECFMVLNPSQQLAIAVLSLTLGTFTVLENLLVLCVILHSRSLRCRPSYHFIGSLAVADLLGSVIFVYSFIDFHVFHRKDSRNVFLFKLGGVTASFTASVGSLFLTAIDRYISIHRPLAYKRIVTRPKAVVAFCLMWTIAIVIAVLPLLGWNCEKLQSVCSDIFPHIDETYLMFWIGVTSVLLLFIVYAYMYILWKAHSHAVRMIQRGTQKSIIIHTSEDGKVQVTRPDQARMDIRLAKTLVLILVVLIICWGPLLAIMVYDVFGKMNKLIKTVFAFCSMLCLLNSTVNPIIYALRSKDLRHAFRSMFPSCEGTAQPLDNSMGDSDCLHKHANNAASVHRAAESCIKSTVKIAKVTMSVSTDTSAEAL
value-type: Ki (nM)
Numbers only, in nM.

Exercise: State its Ki on human CB1 receptors (Homo sapiens): Cc1ccc(C(=O)c2cn(CCCCCF)c3ccccc23)c2ccccc12
Solution: 1.11

More entries:
Exercise: # query: Ki | item O=C(c1cccc2ccccc12)c1cn(CCCCCF)c2ccccc12 | system: human CB1 receptors (Homo sapiens)
Solution: 1.66

====

Target: human CB2 receptors (Homo sapiens)
Sequence (P34972 whole entry): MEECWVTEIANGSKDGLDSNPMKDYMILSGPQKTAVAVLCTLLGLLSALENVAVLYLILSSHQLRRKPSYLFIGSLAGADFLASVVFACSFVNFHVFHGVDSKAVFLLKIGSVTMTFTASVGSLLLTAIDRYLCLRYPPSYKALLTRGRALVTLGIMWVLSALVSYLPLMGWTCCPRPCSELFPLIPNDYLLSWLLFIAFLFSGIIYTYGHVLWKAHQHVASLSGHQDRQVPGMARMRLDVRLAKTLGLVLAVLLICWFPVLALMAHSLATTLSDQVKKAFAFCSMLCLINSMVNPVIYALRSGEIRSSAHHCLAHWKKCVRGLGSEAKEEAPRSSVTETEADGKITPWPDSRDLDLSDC
Experiment: Cyclic AMP assay, hCB2 CHO cells
So I've got a bunch of compounds here, and I need their IC50 values.
Give bare numbers, in nM.

Exercise: Enter reported IC50 observed with human CB2 receptors (Homo sapiens) for Cc1ccc(C(=O)c2cn(CCCCCF)c3ccccc23)c2ccccc12 [MAM-2201]
Solution: 22.4

***
Exercise: Form field: IC50 recorded for O=C(c1cccc2ccccc12)c1cn(CCCCCF)c2ccccc12 [AM-2201] with human CB2 receptors (Homo sapiens) (enter value)
Solution: 31.8
